Listed variants paired with reported protein stability index
B1: TRIM43 (parent)
chain: NRFRVEISFHFEVTNHNIRLFEDV

- Variants of: B1
- assay: protein stability index of a GFP-peptide fusion (GPS, HEK-293T) (PSI 1-6); higher = more stable;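 further: lentivirally expressed fusions sorted by FACS into six bins by GFP to DsRed ratio, PSI derived from sequencing read proportions per bin multiplied by bin number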
- settings: c terminus: a fixed tail appended
endpoint: protein stability index

INSERT INTO measurements (change, result) VALUES
  ('I18E', 2.9),
  ('V5K', 3.27),
  ('I7D', 2.44),
  ('R2W', 2.21),
  ('E22L', 2.29),
  ('F11T', 2.44),
  ('I18T', 2.09),
  ('V24T', 2.44),
  ('E12Y', 2.51),
  ('I18P', 3.07),
  ('I18H', 3.18),
  ('F21C', 2.67),
  ('V5R', 1.5),
  ('F9E', 1.95),
  ('E22Q', 2.31),
  ('H10N', 2.63),
  ('N15P', 3.72),
  ('F21P', 1.76),
  ('R4C', 2.91),
  ('V13E', 4.46),
  ('D23I', 3.66),
  ('V5A', 3.44),
  ('N15L', 3.22),
  ('V5S', 2.08),
  ('R19P', 1.69),
  ('E6L', 2.03),
  ('R2D', 2.46),
  ('F21L', 2.29),
  ('R4A', 3.36),
  ('V5G', 2.86),
  ('R4G', 3.21),
  ('F3D', 3.13),
  ('S8C', 2.02),
  ('D23M', 2.12),
  ('E12L', 2.91),
  ('D23F', 3.88),
  ('V5N', 2.11),
  ('E6A', 2.86),
  ('E22T', 2.66),
  ('F21E', 2.31),
  ('E6V', 3.86),
  ('S8G', 2.38),
  ('V5F', 2.78),
  ('H16S', 2.05),
  ('N15S', 2.18),
  ('F3I', 2.35);
